B1: KCNG1 (parent)
chain: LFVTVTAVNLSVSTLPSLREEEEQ

- Variants of: B1
- test-protocol: protein stability index of a GFP-peptide fusion (GPS, HEK-293T) (PSI 1-6); higher = more stable;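 further: lentivirally expressed fusions sorted by FACS into six bins by GFP to DsRed ratio, PSI derived from sequencing read proportions per bin multiplied by bin number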
- stated-conditions: c terminus: a fixed tail appended

variant-identifier: V5H
protein stability index: 3.52

variant-identifier: S17A
protein stability index: 1.55

variant-identifier: E20K
protein stability index: 1.62

variant-identifier: S13L
protein stability index: 2.71

variant-identifier: V3T
protein stability index: 4.52

variant-identifier: V12A
protein stability index: 2.71

variant-identifier: F2H
protein stability index: 2.19

variant-identifier: V8P
protein stability index: 2.29

variant-identifier: T4E
protein stability index: 1.75

variant-identifier: F2A
protein stability index: 2.27

variant-identifier: Q24K
protein stability index: 1.74

variant-identifier: V8E
protein stability index: 3.16

variant-identifier: F2C
protein stability index: 1.67

variant-identifier: T4Y
protein stability index: 3.61

variant-identifier: V5D
protein stability index: 4.51

variant-identifier: S11R
protein stability index: 2.63
